Value source: the supplement of paper PMC10567573

In this section we review reported protein stability index values for a set of variants.
B1: C10orf62 (parent)
chain: RALEEVEMKLQKNFLTQRENTIAG

# Variants of: B1
# RUN DESCRIPTION: protein stability index of a GFP-peptide fusion (GPS, HEK-293T) (PSI 1-6); higher = more stable;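 further: lentivirally expressed fusions sorted by FACS into six bins by GFP to DsRed ratio, PSI derived from sequencing read proportions per bin multiplied by bin number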
# RECORDED CONDITIONS: c terminus: a fixed tail appended

SEQ: RAREEVEMKLQKNFLTQRENTIAG [L3R]
protein stability index: 4.09
//
SEQ: RALEEVEMKLHKNFLTQRENTIAG [Q11H]
protein stability index: 2.94
//
SEQ: RALEEVEMKLQKNFLTNRENTIAG [Q17N]
protein stability index: 3.89
//
SEQ: RALEEVSMKLQKNFLTQRENTIAG [E7S]
protein stability index: 2.97
//
SEQ: RALEEVEMKLQKNFLTQRENTIYG [A23Y]
protein stability index: 2.91
//
SEQ: RALEEVEMKLQKNFLTVRENTIAG [Q17V]
protein stability index: 3.06
//
SEQ: RNLEEVEMKLQKNFLTQRENTIAG [A2N]
protein stability index: 3.89
